Quick list: RP-LC retention time per entry.
assay_comment: gradient 5% acetonitrile 3 min, to 50% in 2 min, to 85% in 15 min, held 3 min, 100 µL/min
experimental_parameters: column: Zorbax Extend-C18 2.1 x 50 mm; eluents: water / acetonitrile, 0.1% formic acid
All answers are understood in s, so give the number only.

Completed entries (count: 8):
CCS(=O)(=O)N1CCCc2cc(C(=O)NC3CCCCC3)ccc21 | 656
Cc1ccsc1C(=O)NCC1CCCCC(=O)N1 (configuration not stated) | 640
CCC1CN(C(=O)N2CCC(C(=O)NCCN3CCCC3)CC2)c2cc(C)ccc2O1 (configuration not stated) | 649
COC1CCC12CCN(S(=O)(=O)c1ccc(C)c(F)c1)CC2 (configuration not stated) | 1090
COc1ccc(-c2nc3cc(C)ccn3c2NC(=O)c2cc(OC)c(OC)c(OC)c2)cc1 | 664
Cc1ccc(NC(=O)CN2CCc3[nH]c4c(C)c(Cl)ccc4c(=O)c3C2)c(Cl)c1 | 741
CCn1cnc(S(=O)(=O)N2CCCC(C(=O)Nc3ccc(F)c(Cl)c3)C2)c1 (configuration not stated) | 830
CCCCNC(=O)C(=O)NCC(c1ccc2c(c1)OCO2)N1CCOCC1 (configuration not stated) | 628

Given the entry O=C(CCc1nnc2c3cc(-c4ccc(F)cc4)nn3ccn12)NCCc1ccccn1 , report its measured RP-LC retention time.
603

Given the entry N#Cc1cnc2ccccc2c1N1CCC(C(=O)N2CCSCC2)CC1 , report its measured RP-LC retention time.
658

Given the entry COC(=O)c1cc(C2CC2)nc2c1c(=O)n(Cc1cccc(C)c1)c(=O)n2C , report its measured RP-LC retention time.
1090

Given the entry CC(C)(C)c1ccc(S(=O)(=O)Nc2cccc(C(=O)O)c2)cc1 , report its measured RP-LC retention time.
810

Given the entry CCN(CC)C(=O)c1sc2ncn(CC(=O)N3CCCCC3C)c(=O)c2c1C (configuration not stated) , report its measured RP-LC retention time.
752

Given the entry O=C(Cn1nc2n(c1=O)CCCC2)NCCc1ccc(Cl)cc1 , report its measured RP-LC retention time.
678

Given the entry COCc1cc2nn(CC(=O)Nc3cc(F)ccc3C)c(=O)n2c(-c2ccccc2)n1 , report its measured RP-LC retention time.
853

Given the entry COc1ccc(OC)c(NC(=O)C2(CCO)CCN(c3ncccn3)C2)c1 (configuration not stated) , report its measured RP-LC retention time.
631

Given the entry CCN(CC)C(=O)Cn1c(C2CC(=O)N(C3CCCC3)C2)nc2ccccc21 (configuration not stated) , report its measured RP-LC retention time.
657

###

assay_comment: gradient 5% acetonitrile 3 min, to 50% in 2 min, to 85% in 15 min, held 3 min, 100 µL/min
experimental_parameters: column: Zorbax Extend-C18 2.1 x 50 mm; eluents: water / acetonitrile, 0.1% formic acid
Quick list: RP-LC retention time per entry.
All answers are understood in s, so give the number only.

Completed entries (count: 6):
O=C(CCn1cnc2cc(S(=O)(=O)N3CCCC3)ccc21)N1CCN(c2ccccn2)CC1 | 576
CCc1ccc(NC(=O)C2CCCN(c3nc4c(s3)c(C)nn4-c3ccc(OC)cc3)C2)cc1 (centres undefined) | 1360
O=C(Cn1c(=O)nc(-c2ccccc2)c2cc(Cl)ccc21)N1CCN(c2ccccn2)CC1 | 646
CCn1cnc(S(=O)(=O)N2CCCC(C(=O)Nc3ccc(F)cc3F)C2)c1 (centres undefined) | 742
COc1ccc(-n2c(=O)n(C)c(=O)c3cc(C(=O)Nc4ccc(C)cc4F)cnc32)cc1 | 849
CCNC(=O)N1CCCC(c2cccc(C(=O)NCc3ccc(F)cc3F)c2)C1 (centres undefined) | 804

Given the entry O=c1n(Cc2ccccc2F)nc2ccc(S(=O)(=O)N3CCOCC3)cn12 , report its measured RP-LC retention time.
788

Given the entry O=C(c1cccc2[nH]ccc12)N1CCCC(c2n[nH]c(C3CC3)n2)C1 (centres undefined) , report its measured RP-LC retention time.
606

Given the entry COc1ccc(NC(=O)NCCCn2c(C(F)(F)F)nc3cccnc32)c(OC)c1 , report its measured RP-LC retention time.
708

Given the entry Cc1cccc(OCc2nc(CCN(C)C(=O)NC3CCCC3)no2)c1 , report its measured RP-LC retention time.
894

Given the entry CCc1ccc(S(=O)(=O)NCc2c(-c3ccccc3)nc3sc(C)nn23)cc1 , report its measured RP-LC retention time.
943

Given the entry Cc1cc(CS(=O)(=O)c2ccccc2)cc(OCc2ccc(CN3CCC[C@@H]3CO)cc2)c1 , report its measured RP-LC retention time.
788

Given the entry Cc1cccc(NC(=O)C2CCCN2S(=O)(=O)c2cc3c(cc2C)NC(=O)C(C)O3)c1 (centres undefined) , report its measured RP-LC retention time.
813

Given the entry CC1(C(=O)NCc2ccc(F)cc2)CN(S(C)(=O)=O)CC(=O)N1Cc1ccc(F)cc1 (centres undefined) , report its measured RP-LC retention time.
841
